Cited source for all entries: patent US20230134571A1

Collected IC50 (µg/ml) with constrains values appear next to each entry.
- Experimental Target: HIV Env of isolate ZM197M.PB7 (clade C) (HIV)
- Assay Summary: cell-based or functional assay
Measure Name: IC50 (µg/ml) with constrains (µg/mL)

1) ePGDM5 (antibody, V domains shown) VH: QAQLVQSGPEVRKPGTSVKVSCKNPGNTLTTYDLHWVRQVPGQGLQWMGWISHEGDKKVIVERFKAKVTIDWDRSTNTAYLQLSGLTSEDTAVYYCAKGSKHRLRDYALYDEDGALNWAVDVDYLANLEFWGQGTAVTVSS VL: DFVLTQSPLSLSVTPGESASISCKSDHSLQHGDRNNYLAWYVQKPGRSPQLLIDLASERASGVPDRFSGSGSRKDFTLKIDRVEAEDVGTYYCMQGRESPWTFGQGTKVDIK | 0.035
2) ePGDM9 (antibody, V domains shown) VH: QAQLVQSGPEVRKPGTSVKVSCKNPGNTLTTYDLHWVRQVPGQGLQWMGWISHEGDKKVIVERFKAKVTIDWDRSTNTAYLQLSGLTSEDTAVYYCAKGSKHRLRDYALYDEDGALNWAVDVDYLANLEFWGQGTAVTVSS VL: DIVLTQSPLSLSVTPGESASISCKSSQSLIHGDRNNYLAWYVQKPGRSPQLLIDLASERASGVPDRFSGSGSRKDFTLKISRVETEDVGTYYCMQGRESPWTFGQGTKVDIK | 0.023
3) PGDM1400 (antibody, V domains shown) VH: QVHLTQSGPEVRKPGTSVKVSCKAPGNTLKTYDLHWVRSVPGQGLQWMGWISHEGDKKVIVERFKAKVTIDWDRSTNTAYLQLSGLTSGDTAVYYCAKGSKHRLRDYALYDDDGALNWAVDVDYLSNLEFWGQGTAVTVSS VL: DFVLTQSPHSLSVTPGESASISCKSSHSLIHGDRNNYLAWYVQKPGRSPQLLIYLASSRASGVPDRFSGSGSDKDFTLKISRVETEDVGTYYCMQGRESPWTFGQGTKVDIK | 0.071
4) ePGDM13 (antibody, V domains shown) VH: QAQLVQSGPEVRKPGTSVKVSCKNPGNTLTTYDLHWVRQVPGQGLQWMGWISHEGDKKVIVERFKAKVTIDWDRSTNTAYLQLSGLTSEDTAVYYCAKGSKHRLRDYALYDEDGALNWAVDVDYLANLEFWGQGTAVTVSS VL: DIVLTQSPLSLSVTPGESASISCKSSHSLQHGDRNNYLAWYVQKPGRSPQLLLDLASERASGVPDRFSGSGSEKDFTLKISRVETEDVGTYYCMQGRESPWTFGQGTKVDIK | 0.06
